- System: CDC2L2;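 note: KINOMEscan scanMAX binding as percent activity remaining versus control; lower means stronger binding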
- recorded.conditions: Compound Concentration (nM):1000
measurement.label: Percent Control (%)
Give the quantity in %, number only.

In [3]: df
Out[3]:
                                   molecule  target_under_test  measurement_label  reading_unit  measured_number
0  CCS(=O)(=O)c1ccc(OC)c(Nc2ncc(-c3cccc(OC)c3)o2)c1 [GW580509X]             CDC2L2    Percent Control             %              100
1  COc1cc(C=NNc2ncnc3c2cnn3-c2ccccc2)ccc1O [GW513184X]             CDC2L2    Percent Control             %              100
2  NS(=O)(=O)c1ccc(N/N=C2\C(=O)Nc3ccc(Cl)cc32)cc1 [GW280670X]             CDC2L2    Percent Control             %              100

NS(=O)(=O)c1ccc(N/N=C2\C(=O)Nc3ccc(C(=O)NCc4ccncc4)cc32)cc1 [GW300657X] yielded Percent Control of 82

CC(C)COC(=O)c1ccc2c(c1)/C(=C/Nc1ccc(S(N)(=O)=O)cc1)C(=O)N2 [GW416981X] yielded Percent Control of 100

CC1=C(C(=O)Nc2ccc3[nH]ncc3c2)C(c2ccc3ccccc3c2)CC(=O)N1 (stereo not shown) [GSK270822A] yielded Percent Control of 90

O=C1Nc2ccc(C(=O)c3ccco3)cc2C1=Cc1cc(Cl)c(O)c(Cl)c1 [GW406108X] yielded Percent Control of 98
